meta.source: patent US20160058880A1

molecular target: TOP (recombinant human thimet oligopeptidase, R&D systems, Ref 3439-ZN) (human, UniProt P52888 1-689, limits assumed); assay: cell-based or functional assay
Sequence (P52888 whole entry): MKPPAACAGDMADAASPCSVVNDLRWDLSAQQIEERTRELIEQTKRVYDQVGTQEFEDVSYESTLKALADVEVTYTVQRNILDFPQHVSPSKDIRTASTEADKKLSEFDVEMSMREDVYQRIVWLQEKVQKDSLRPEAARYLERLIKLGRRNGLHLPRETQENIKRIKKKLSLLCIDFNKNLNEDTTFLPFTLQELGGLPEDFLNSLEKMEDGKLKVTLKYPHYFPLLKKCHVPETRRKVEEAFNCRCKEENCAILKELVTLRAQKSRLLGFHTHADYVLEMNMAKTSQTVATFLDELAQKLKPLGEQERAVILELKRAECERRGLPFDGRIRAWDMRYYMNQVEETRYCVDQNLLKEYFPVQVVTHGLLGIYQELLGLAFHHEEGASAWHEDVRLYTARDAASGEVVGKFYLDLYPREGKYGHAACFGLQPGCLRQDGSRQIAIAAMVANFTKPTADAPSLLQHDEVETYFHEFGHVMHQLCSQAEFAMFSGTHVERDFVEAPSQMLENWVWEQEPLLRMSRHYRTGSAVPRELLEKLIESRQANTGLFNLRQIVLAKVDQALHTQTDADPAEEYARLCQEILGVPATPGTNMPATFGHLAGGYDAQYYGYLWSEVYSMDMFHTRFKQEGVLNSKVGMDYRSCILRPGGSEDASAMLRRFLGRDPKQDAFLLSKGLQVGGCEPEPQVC
* marks the point of attachment. Doxorubicin(3'-N) = COc1cccc2c1C(=O)c1c(O)c3c(c(O)c1C2=O)C[C@@](O)(C(=O)CO)C[C@@H]3O[C@H]1C[C@H](N*)[C@H](O)[C@H](C)O1; Phosphonoacetyl = O=C(CP(=O)(O)O)*
QUANTITY NAME: % Metabolites released after 3 h with TOP 5 nM (GP-Dox) (%)
Provide only the numeric value, understood in %.

{"columns": ["BINDER", "UNIT ABBREVIATION", "TEST VALUE"],
 "data": [
  ["Phosphonoacetyl-ALGP-{Doxorubicin(3'-N)} (SMILES COc1cccc2c1C(=O)c1c(O)c3c(c(O)c1C2=O)C[C@@](O)(C(=O)CO)C[C@@H]3O[C@H]1C[C@H](NC(=O)[C@@H]2CCCN2C(=O)CNC(=O)[C@H](CC(C)C)NC(=O)[C@H](C)NC(=O)CP(=O)(O)O)[C@H](O)[C@H](C)O1) [PhAc-ALGP-doxorubicin]", "%", 72],
  ["Phosphonoacetyl-TSGP-{Doxorubicin(3'-N)} (SMILES COc1cccc2c1C(=O)c1c(O)c3c(c(O)c1C2=O)C[C@@](O)(C(=O)CO)C[C@@H]3O[C@H]1C[C@H](NC(=O)[C@@H]2CCCN2C(=O)CNC(=O)[C@H](CO)NC(=O)[C@@H](NC(=O)CP(=O)(O)O)[C@@H](C)O)[C@H](O)[C@H](C)O1) [PhAc-TSGP-doxorubicin]", "%", 38]
]}

From here, focus on the item given below.
// % Metabolites released after 3 h with TOP 5 nM (GP-Dox) value for Phosphonoacetyl-KLGP-{Doxorubicin(3'-N)} (SMILES COc1cccc2c1C(=O)c1c(O)c3c(c(O)c1C2=O)C[C@@](O)(C(=O)CO)C[C@@H]3O[C@H]1C[C@H](NC(=O)[C@@H]2CCCN2C(=O)CNC(=O)[C@H](CC(C)C)NC(=O)[C@H](CCCCN)NC(=O)CP(=O)(O)O)[C@H](O)[C@H](C)O1) [PhAc-KLGP-doxorubicin] : 31
